- target-under-test: T1, Human HARS (human, UniProt P12081 1-509, limits assumed)
- T1 construct: also called human HRS; human histidyl-tRNA synthetase
- T1 sequence: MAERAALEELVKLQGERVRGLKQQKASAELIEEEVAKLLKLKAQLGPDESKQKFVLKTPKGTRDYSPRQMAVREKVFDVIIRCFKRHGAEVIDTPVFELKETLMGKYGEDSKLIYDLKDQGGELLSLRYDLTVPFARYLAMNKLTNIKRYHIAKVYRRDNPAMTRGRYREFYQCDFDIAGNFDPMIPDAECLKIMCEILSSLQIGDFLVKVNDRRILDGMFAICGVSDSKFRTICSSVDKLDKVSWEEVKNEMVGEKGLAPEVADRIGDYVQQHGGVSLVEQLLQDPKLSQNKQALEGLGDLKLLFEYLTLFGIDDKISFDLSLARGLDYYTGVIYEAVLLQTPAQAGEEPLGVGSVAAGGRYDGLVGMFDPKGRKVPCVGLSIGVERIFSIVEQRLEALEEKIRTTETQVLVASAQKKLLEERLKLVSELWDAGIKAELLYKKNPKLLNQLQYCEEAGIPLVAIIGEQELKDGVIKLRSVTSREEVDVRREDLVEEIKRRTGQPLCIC
- test-description: SPR (ProteOn); HRS protein immobilized, antibody as analyte
quantity-kind: Kd

binder	data-value
AB13-112 (IgG1m(za) kappa) (antibody, V domains shown, Human) VH: QVQLVESGGGLVKPGGSLRLSCAASGFTFSDYYMSWIRQAPGKGLEWVSYISDKSRYTKYTDKVRGRFTISRDNAKNSLYLQMNSLRAEDTAVYYCARYLYQVIAIADAWGQGTLVTVSS VL: DIQMTQSPSSVSASVGDRVTITCRASQGISSWLAWFQQKPGKAPKLLIFVASNLESGVPSRFSGSGSGTDFTLTISSLQPEDFATYYCQQAESFPYTFGQGTKLEIK	< 1 pM
AB13-166 (antibody, V domains shown, Human; IgG1m(zf) kappa) VH: QVQLVESGGGLVKPGGSLRLSCAASGFTFSDYYMSWIRQAPGKGLEWVSYISDKSRYTKYTPSVRGRFTISRDNAKNSLYLQMNSLRAEDTAVYYCARYLYQVIAIADAWGQGTLVTVSS VL: DIQMTQSPSSVSASVGDRVTITCRASQGISSWLAWFQQKPGKAPKLLIFVASNLESGVPSRFSGSGSGTDFTLTISSLQPEDFATYYCQQAESFPYTFGQGTKLEIK	< 1 pM
AB13-227 (antibody, V domains shown, Human; IgG1m(zf) kappa) VH: QVQLVESGGGLVKPGGSLRLSCAASGFTFSDYYMSWIRQAPGKGLEWVSYISDSSRYTKYTDSVRGRFTISRDNAKNSLYLQMNSLRAEDTAVYYCARYLYQVIAIAKSWGQGTLVTVSS VL: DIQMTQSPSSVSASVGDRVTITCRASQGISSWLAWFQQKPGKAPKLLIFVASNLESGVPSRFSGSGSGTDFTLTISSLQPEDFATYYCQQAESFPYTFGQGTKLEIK	< 50 pM
AB13-112 (IgG4 kappa) (antibody, V domains shown, Human) VH: QVQLVESGGGLVKPGGSLRLSCAASGFTFSDYYMSWIRQAPGKGLEWVSYISDKSRYTKYTDKVRGRFTISRDNAKNSLYLQMNSLRAEDTAVYYCARYLYQVIAIADAWGQGTLVTVSS VL: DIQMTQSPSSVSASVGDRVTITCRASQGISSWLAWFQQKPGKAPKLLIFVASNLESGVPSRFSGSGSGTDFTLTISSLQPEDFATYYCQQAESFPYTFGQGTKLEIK	< 1 pM
